Conditions: buffer; pH 7.4; 200.0 µM
measure: solubility kinetic (µg/mL)
// return numeric value only (unit: µg/mL, not printed)

[
  {
    "compound": "COc1ccc(C(=O)NCC(C)NC(=O)c2ccc(OC)c(OC)c2)cc1OC (stereo unspecified)",
    "units.text": "µg/mL",
    "reported": 8.9
  },
  {
    "compound": "CC(C)N1C(=O)C2(OCCCO2)c2cc(Br)ccc21",
    "units.text": "µg/mL",
    "reported": 46.9
  },
  {
    "compound": "O=C(Nc1nc2ccccc2[nH]1)c1ccc(Cl)cc1",
    "units.text": "µg/mL",
    "reported": 1.8
  },
  {
    "compound": "COCCCNc1nc2nonc2nc1NCCSC",
    "units.text": "µg/mL",
    "reported": 37.1
  }
]

Task item: Data request, read-out solubility kinetic, for `COc1ccccc1NC(=O)c1ccc2[nH]c(C)c(C)c2c1`
Reply: 2.1

* * *

Settings: buffer; pH 7.4; 200.0 µM
Consider the following molecules and their measured log10(solubility kinetic) readings.
// units: µg/mL (pre-log); metric: solubility kinetic; scale: log10

Below are worked cases with known answers.
[
  {
    "compound.structure": "Cc1cc(N2CCOCC2)n2cc(-c3ccccc3)nc2n1",
    "log10(solubility kinetic)": 1.09
  },
  {
    "compound.structure": "Cc1nc2c(oc3ccc(Cl)cc32)c(=O)[nH]1",
    "log10(solubility kinetic)": 1.08
  },
  {
    "compound.structure": "O=C(Nc1ccon1)Nc1ccc(Cl)cc1Cl",
    "log10(solubility kinetic)": 0.20
  },
  {
    "compound.structure": "COc1ccc(C(=O)NC(=S)N(C)C2CCCCC2)cc1",
    "log10(solubility kinetic)": 0.74
  },
  {
    "compound.structure": "CN(C)CCC#CC1(O)c2ccccc2-c2ccccc21",
    "log10(solubility kinetic)": 1.51
  }
]

Task item: Data request, read-out log10(solubility kinetic), for `CCC(=O)Nc1ccc(OCc2nc3ccccc3s2)cc1`
Reply: 0.36

Task item: Try `Cc1nc(Nc2ccccc2)sc1C(=O)c1ccccc1` next.
Reply: 0.32

* * *

Conditions: buffer; pH 7.4; 200.0 µM
measure: solubility kinetic

Below are worked cases with known answers.
[
  {
    "molecule": "CSCCC1NC(=O)N(CC(=O)Nc2cc(C)on2)C1=O (centres undefined)",
    "solubility kinetic": "> 46.9 µg/mL"
  },
  {
    "molecule": "Cc1ccc(C2(c3noc(CN4CCOCC4)n3)CCCC2)cc1",
    "solubility kinetic": "41.3 µg/mL"
  },
  {
    "molecule": "CN(C)NC(=S)NC1(C)CCS(=O)(=O)C1 (centres undefined)",
    "solubility kinetic": "> 37.7 µg/mL"
  },
  {
    "molecule": "Cn1c(SCc2ccc([N+](=O)[O-])cc2)nc2c(c1=O)SCC2",
    "solubility kinetic": "1.6 µg/mL"
  }
]

Task item: Data request, read-out solubility kinetic, for `COc1ccccc1NC(=O)c1ccc2c(c1)CCN2S(C)(=O)=O`
Reply: > 52 µg/mL

Task item: Try `Cn1c(=O)c(-c2ccccc2[N+](=O)[O-])c(Cl)c2ccccc21` next.
Reply: 1.2 µg/mL

Task item: Try `O=C(Nc1c(-c2ccccc2)nc2ccccn12)c1cccc(F)c1` next.
Reply: 1.4 µg/mL

Task item: Try `O=C(CN1CCOCC1)NNc1c2ccccc2nc2ccccc12` next.
Reply: > 50.5 µg/mL

* * *

Conditions: buffer; pH 7.4; 200.0 µM
measure: solubility kinetic
Field: value (include unit after the number)

Below are worked cases with known answers.
[
  {
    "compound": "O=C1CC(Nc2cc(=O)[nH]c(=O)[nH]2)C(=O)N1c1ccccc1Cl (stereo unspecified)",
    "measure": "solubility kinetic",
    "reported": "39.4 µg/mL"
  },
  {
    "compound": "NC(=O)COC(=O)c1cc(-c2ccco2)nc2ccccc12",
    "measure": "solubility kinetic",
    "reported": "39.9 µg/mL"
  },
  {
    "compound": "CC(=O)c1ccc(NC(=S)NC(=O)Cc2ccc(Cl)cc2)cc1",
    "measure": "solubility kinetic",
    "reported": "0.4 µg/mL"
  },
  {
    "compound": "CC(C)NC(=O)CN1C(=O)c2cccc3cccc1c23",
    "measure": "solubility kinetic",
    "reported": "9.8 µg/mL"
  },
  {
    "compound": "O=C(COC(=O)c1ccc([N+](=O)[O-])cc1)NCCC1=CCCCC1",
    "measure": "solubility kinetic",
    "reported": "3.1 µg/mL"
  }
]

Task item: Data request, read-out solubility kinetic, for `Cc1ccccc1N1C(=O)CC2(CCCC2)CC1=O`
Reply: 37.2 µg/mL

* * *

Consider the following molecules and their measured log10(solubility kinetic) readings.
Details: buffer; pH 7.4; 200.0 µM
// units: µg/mL (pre-log); metric: solubility kinetic; scale: log10

[
  {
    "molecule": "O=C1CCC(=O)N1CC(=O)N(c1ccccc1)c1ccccc1",
    "log10(solubility kinetic)": 1.61
  },
  {
    "molecule": "FC(F)(F)c1ccnc(Oc2ccc(C3=NCCS3)cc2)c1",
    "log10(solubility kinetic)": 0.34
  },
  {
    "molecule": "CCc1ccnc(NS(=O)(=O)c2ccc3c(c2)CCO3)c1",
    "log10(solubility kinetic)": 1.25
  },
  {
    "molecule": "CC(=O)CSc1ccc(-c2nc3cc(C)c(C)cc3[nH]2)cn1",
    "log10(solubility kinetic)": 0.59
  },
  {
    "molecule": "CSc1ncccc1C(=O)OCC(=O)NC1CCC(C)CC1 (centres undefined)",
    "log10(solubility kinetic)": 1.21
  },
  {
    "molecule": "COCCCNC(=O)/C(C#N)=C/c1ccc(F)cc1",
    "log10(solubility kinetic)": 1.58
  },
  {
    "molecule": "COCc1c(C(=O)OCC(=O)Nc2ccc(OC(F)F)cc2)oc2ccccc12",
    "log10(solubility kinetic)": 1.13
  },
  {
    "molecule": "CCc1cc(C(=O)c2ccc(OC)cc2)c(NC(=O)CN2CCCC2)s1",
    "log10(solubility kinetic)": 0.77
  },
  {
    "molecule": "CN(C)c1ccc(C2NC(=O)c3ccccc3N2)cc1 (centres undefined)",
    "log10(solubility kinetic)": 0.94
  },
  {
    "molecule": "C=CCN1C(=O)CSC1=Nc1ccc(NC(C)=O)cc1",
    "log10(solubility kinetic)": 1.62
  }
]

Task item: Data request, read-out log10(solubility kinetic), for `COc1ccc(N=c2ssnc2Cl)cc1`
Reply: -0.40

Task item: Try `COC(=O)c1sc(NC(=O)/C=C/c2ccccc2Cl)nc1C` next.
Reply: 0.18

Task item: Try `CS(=O)(=O)N(CC(=O)NCCSC1CCCCC1)c1ccccc1` next.
Reply: 1.61

Task item: Try `N#Cc1ccncc1Sc1ccc(Cl)cc1` next.
Reply: 1.40

Task item: Try `CCOc1cc(-c2nc3ccccc3s2)ccc1O` next.
Reply: 0.04

Task item: Try `O=C(NC1=NCCS1)c1cccc(OC(F)F)c1` next.
Reply: 1.38

Task item: Try `COc1ccccc1CNC(=O)Cn1c(=O)oc2cc(Cl)ccc21` next.
Reply: 0.23

Task item: Try `COc1ccc(NC(=O)c2ccc3nc[nH]c3c2)c(OC)c1` next.
Reply: 1.63

Task item: Try O=C1CSC(c2cccnc2)N1Cc1ccc(Cl)cc1 (centres undefined) next.
Reply: 1.63

Task item: Try `O=C(COC(=O)c1cccc(F)c1)Nc1ccc(Cl)cn1` next.
Reply: 0.79

Task item: Try `CCN(CC)CCOc1ccc(/C(=C(/Cl)c2ccccc2)c2ccccc2)cc1` next.
Reply: 0.18

Task item: Try `COC(=O)C1=C(C)N(Cc2ccccc2)C(=O)/C1=C\c1ccco1` next.
Reply: 0.57

* * *

Settings: buffer; pH 7.4; 200.0 µM
measure: solubility kinetic (µg/mL)
// return numeric value only (unit: µg/mL, not printed)

Below are worked cases with known answers.
[
  {
    "molecule": "Cc1ccc(S(=O)(=O)NC(C)C(=O)NCc2ccc(Cl)cc2)cc1 (centres undefined)",
    "units.text": "µg/mL",
    "reported": 6.9
  },
  {
    "molecule": "O=C(Nc1ccccc1F)c1ccccc1C(=O)Nc1ccccc1F",
    "units.text": "µg/mL",
    "reported": 32.5
  },
  {
    "molecule": "O=C(COc1ccccc1)Nc1ccc2[nH]c(=O)[nH]c2c1",
    "units.text": "µg/mL",
    "reported": 36.9
  },
  {
    "molecule": "CSc1ncc(-c2ccc(Cl)cc2)[nH]1",
    "units.text": "µg/mL",
    "reported": 29.3
  },
  {
    "molecule": "O=C(NC(=S)Nc1cccc2ncccc12)c1cccs1",
    "units.text": "µg/mL",
    "reported": 1.7
  }
]

Read the next record carefully.
Task item: Data request, read-out solubility kinetic, for `CCCN(CC(=O)Nc1cc(C)on1)CC(=O)Nc1ccc(F)c(F)c1F`
Reply: 44.1

Source: PubChem BioAssay AID1996
